# experimental target: Axl (UniProt P30530)
# Sequence (P30530 26-451 limits assumed): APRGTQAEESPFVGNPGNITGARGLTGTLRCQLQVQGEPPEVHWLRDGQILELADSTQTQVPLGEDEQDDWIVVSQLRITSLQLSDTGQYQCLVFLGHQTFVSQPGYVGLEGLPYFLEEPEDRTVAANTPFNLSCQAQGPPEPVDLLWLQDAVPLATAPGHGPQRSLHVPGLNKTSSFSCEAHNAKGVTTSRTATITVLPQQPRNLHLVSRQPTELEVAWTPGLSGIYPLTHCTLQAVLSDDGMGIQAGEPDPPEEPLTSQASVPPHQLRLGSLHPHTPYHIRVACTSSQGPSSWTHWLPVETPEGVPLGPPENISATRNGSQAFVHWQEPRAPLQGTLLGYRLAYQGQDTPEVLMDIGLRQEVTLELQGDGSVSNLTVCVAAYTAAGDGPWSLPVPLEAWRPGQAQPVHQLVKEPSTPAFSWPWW
# test details: ELISA, 1:3 dilution
assay readout: Affinity ELISA CPE mutant ratio (1:3, pH 6.0/7.4)
Answer as a number with no unit attached.

{"columns": ["binder", "endpoint result"],
 "data": [
  ["HC-E102M (antibody, V domains shown) VH: EVQLVQSGAEVKKPGATVKISCKVSGYSFTGHTMNWIRQPPGKGLEWIGLIKPSNGGTSYNQKFKGRVTISADKSISTAYLQWSSLKASDTAMYYCAHGHYMSYFAMDYWGQGTLVTVSS VL: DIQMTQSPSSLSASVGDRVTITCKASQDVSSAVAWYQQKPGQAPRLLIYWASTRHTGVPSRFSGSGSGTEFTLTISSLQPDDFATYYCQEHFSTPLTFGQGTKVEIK", 2.08],
  ["HC-F105N (antibody, V domains shown) VH: EVQLVQSGAEVKKPGATVKISCKVSGYSFTGHTMNWIRQPPGKGLEWIGLIKPSNGGTSYNQKFKGRVTISADKSISTAYLQWSSLKASDTAMYYCAHGHYESYNAMDYWGQGTLVTVSS VL: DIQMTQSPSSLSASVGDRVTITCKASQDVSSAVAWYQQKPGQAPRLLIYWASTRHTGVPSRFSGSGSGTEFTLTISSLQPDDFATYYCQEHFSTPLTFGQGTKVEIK", 2.36]
]}

Kindly review the next binder as well.
Sure, the documented Affinity ELISA CPE mutant ratio (1:3, pH 6.0/7.4) for LC-W050F (antibody, V domains shown) VH: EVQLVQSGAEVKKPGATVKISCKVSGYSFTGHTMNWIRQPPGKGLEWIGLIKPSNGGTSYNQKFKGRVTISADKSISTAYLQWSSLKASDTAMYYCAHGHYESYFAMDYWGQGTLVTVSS VL: DIQMTQSPSSLSASVGDRVTITCKASQDVSSAVAWYQQKPGQAPRLLIYFASTRHTGVPSRFSGSGSGTEFTLTISSLQPDDFATYYCQEHFSTPLTFGQGTKVEIK is 2.25
